ASSAY PROTOCOL: Group toxicity (LD50 grouped mice / LD50 isolated mice)
TEST SETTINGS: mouse, in vivo
METRIC: selectivity ratio
Just the number, please, no unit attached.

INSERT INTO measurements (compound, metric, reported_result) VALUES
  ('O=C(O)CCN1CCN(CCOC(c2ccccc2)c2ccc(F)cc2)CC1 (centres unmarked)', 'selectivity ratio', 0.6);

QUERY: Can you look up the measured selectivity ratio of CCOC(=O)CCN1CCN(CCOC(c2ccc(F)cc2)c2ccc(F)cc2)CC1.Cl.Cl [Derivative 21, dihydrochloride] for me?
RESULT: 0.4

QUERY: Same again, this time with CCOC(=O)CCN1CCN(CCOC(c2ccccc2)c2ccccc2)CC1
RESULT: 0.8

QUERY: Also need O=C(O)CCN1CCN(CCOC(c2ccccc2)c2ccccc2)CC1 , thanks.
RESULT: 0.6

QUERY: Same read-out for O=C(O)CCCN1CCN(CCOC(c2ccccc2)c2ccccc2)CC1 ?
RESULT: 1.25

* * *

Tested on: ptose with reserpine in mice
ASSAY PROTOCOL: Ptose antagonism with reserpine in mice
Type: in vivo
TEST SETTINGS: Mus musculus, po, per os
ED50: recorded values
Entry rule: numbers only, all in mg/kg.

Below are worked cases with known answers.
INSERT INTO measurements (molecule, metric, reading_unit, reported_result) VALUES
  ('O=C(O)CCN1CCN(CCOC(c2ccccc2)c2ccc(F)cc2)CC1 (centres unmarked)', 'ED50', 'mg/kg', 100),
  ('CCOC(=O)CCN1CCN(CCOC(c2ccccc2)c2ccccc2)CC1', 'ED50', 'mg/kg', 190),
  ('O=C(O)CCN1CCN(CCOC(c2ccccc2)c2ccccc2)CC1', 'ED50', 'mg/kg', 55),
  ('CCOC(=O)CCN1CCN(CCOC(c2ccc(F)cc2)c2ccc(F)cc2)CC1.Cl.Cl', 'ED50', 'mg/kg', 70);

Next molecule, please.
QUERY: Item under review: O=C(O)CCCN1CCN(CCOC(c2ccccc2)c2ccccc2)CC1 . Reported ED50?
RESULT: 160

* * *

Test system: mortality with pentetrazole in mice
ASSAY PROTOCOL: Potentiation of mortality with pentetrazole in mice
Format: in vivo
TEST SETTINGS: per os
METRIC: Potentiation of mortality with pentetrazole in mice ED50 (mg/kg)
Supply the numeric figure in mg/kg, leaving out any unit text.

INSERT INTO results (molecule, reported_result) VALUES
  ('O=C(O)CCN1CCN(CCOC(c2ccccc2)c2ccccc2)CC1', 320);

QUERY: Can you look up the measured Potentiation of mortality with pentetrazole in mice ED50 of O=C(O)CCN1CCN(CCOC(c2ccccc2)c2ccc(F)cc2)CC1 (centres unmarked) for me?
RESULT: 160

* * *

Test system: exploration response in mice
ASSAY PROTOCOL: Psychostimulating activity: increase of exploration response in mice (actimetry)
Type: in vivo
TEST SETTINGS: Mus musculus, po, per os, dose which increases exploration response by 50%
Friendly reminder: ED50 below 40 mg/kg is true (1), at or above is false (0).

Please review the entries below; each comes with its answer.
INSERT INTO assay_data (compound, class_label) VALUES
  ('COc1ccccc1C(OCCN1CCN(CCC(=O)O)CC1)c1ccccc1 (stereo not drawn)', 'false (0)'),
  ('O=C(CN1CCN(CCOC(c2ccccc2)c2ccccc2)CC1)N1CCN(Cc2ccc3c(c2)OCO3)CC1 [Derivative 33, trimaleate]', 'true (1)'),
  ('CCCC(OCCN1CCN(CCC(=O)OCC)CC1)c1ccc(F)cc1 (stereo not drawn)', 'false (0)'),
  ('CCOC(=O)CCN1CCN(CCOC(c2ccccc2)c2ccccc2Cl)CC1 (stereo not drawn)', 'false (0)'),
  ('O=C(O)CCN1CCN(CCOC(c2ccccc2)c2cccc(C(F)(F)F)c2)CC1 (stereo not drawn)', 'false (0)');

QUERY: Lab note: ED50 threshold 40 mg/kg. Does this compound come in strictly under it? O=C(O)CCCN1CCN(CCOC(c2ccccc2)c2ccccc2)CC1
RESULT: false (0)

QUERY: Same for O=C(O)CCCCN1CCN(CCOC(c2ccccc2)c2ccc(F)cc2)CC1 (stereo not drawn)
RESULT: true (1)

QUERY: Okay, and CCCC(OCCN1CCN(CCC(=O)O)CC1)c1ccccc1 (stereo not drawn) ?
RESULT: false (0)
